All values here come from ChEMBL document CHEMBL3813675.

Measured Ki accompanies every entry in the list below.
Biological target: Retinoic acid receptor alpha/Retinoid X receptor alpha (Homo sapiens, UniProt P10276)
Sequence (P10276 whole entry): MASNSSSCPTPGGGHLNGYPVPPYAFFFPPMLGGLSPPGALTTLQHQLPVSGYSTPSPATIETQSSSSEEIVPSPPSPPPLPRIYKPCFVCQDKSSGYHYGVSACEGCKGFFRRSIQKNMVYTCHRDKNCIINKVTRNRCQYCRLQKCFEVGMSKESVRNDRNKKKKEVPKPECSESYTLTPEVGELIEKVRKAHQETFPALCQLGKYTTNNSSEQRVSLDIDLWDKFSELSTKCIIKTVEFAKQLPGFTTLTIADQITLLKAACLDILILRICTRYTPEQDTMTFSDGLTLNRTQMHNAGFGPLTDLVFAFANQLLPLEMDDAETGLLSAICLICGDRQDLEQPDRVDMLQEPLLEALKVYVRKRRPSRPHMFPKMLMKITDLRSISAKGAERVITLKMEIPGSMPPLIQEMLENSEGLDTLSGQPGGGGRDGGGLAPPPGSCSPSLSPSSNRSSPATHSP
Sequence (P19793 whole entry): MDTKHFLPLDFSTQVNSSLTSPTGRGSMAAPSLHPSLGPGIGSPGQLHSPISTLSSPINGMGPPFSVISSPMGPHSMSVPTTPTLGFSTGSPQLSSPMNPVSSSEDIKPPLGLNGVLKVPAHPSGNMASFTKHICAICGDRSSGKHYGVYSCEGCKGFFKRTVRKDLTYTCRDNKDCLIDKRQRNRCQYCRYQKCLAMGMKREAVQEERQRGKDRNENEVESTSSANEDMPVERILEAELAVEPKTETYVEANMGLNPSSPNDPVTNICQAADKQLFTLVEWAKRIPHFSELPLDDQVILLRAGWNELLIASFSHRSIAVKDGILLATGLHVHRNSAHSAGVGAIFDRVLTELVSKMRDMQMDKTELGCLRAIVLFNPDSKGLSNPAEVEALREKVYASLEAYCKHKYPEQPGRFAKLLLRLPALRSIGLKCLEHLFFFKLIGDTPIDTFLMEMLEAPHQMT
readout name: Ki

| structure smiles string | result |
| --- | --- |
| CC(C)(C)c1cc(-c2cc(-c3ccc(C(=O)O)cc3)nn2-c2ccc(C(=O)N3CCOCC3)cc2)cc(C(C)(C)C)c1 | > 1700 nM |
| CN1CCN(C(=O)c2ccc(-n3nc(-c4ccc(C(=O)O)cc4)cc3-c3cc(C(C)(C)C)cc(C(C)(C)C)c3)cc2)CC1 | > 1700 nM |
| CC(C)c1cc(-c2cc(-c3ccc(C(=O)O)cc3)nn2-c2ccc(S(C)(=O)=O)cc2)cc(C(C)(C)C)c1 | 87 nM |
| CC(C)(C)c1cc(-c2cc(-c3ccc(C(=O)O)cc3)nn2-c2ccc(C(N)=O)cc2)cc(C(C)(C)C)c1 | > 1700 nM |
| CN(C)C(=O)c1ccc(-n2nc(-c3ccc(C(=O)O)cc3)cc2-c2cc(C(C)(C)C)cc(C(C)(C)C)c2)cc1 | > 1700 nM |
| Cc1cc(-c2cc(-c3ccc(C(=O)O)cc3)nn2-c2ccc(S(C)(=O)=O)cc2)cc(C(C)(C)C)c1 | 6.2 nM |

* * *

Target: Retinoic acid receptor gamma (Homo sapiens) (UniProt P13631)
Sequence (P13631 whole entry, the tested form may be a part): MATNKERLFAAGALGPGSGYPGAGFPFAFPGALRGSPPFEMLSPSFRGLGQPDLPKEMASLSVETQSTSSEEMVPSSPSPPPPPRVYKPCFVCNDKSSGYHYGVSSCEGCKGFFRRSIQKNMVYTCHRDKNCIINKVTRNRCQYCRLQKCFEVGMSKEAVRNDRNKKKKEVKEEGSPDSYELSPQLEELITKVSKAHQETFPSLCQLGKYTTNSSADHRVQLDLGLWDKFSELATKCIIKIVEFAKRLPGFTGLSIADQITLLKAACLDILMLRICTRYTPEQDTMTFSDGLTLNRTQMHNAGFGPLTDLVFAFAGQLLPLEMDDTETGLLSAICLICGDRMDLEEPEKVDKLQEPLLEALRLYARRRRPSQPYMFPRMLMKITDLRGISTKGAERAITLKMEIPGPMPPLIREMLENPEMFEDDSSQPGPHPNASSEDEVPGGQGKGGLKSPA
Experiment: Antagonist activity at RARgamma-LBD (unknown origin) expressed in HEK-293 cells assessed as inhibition of ATRA induced Gal4/luciferase gene expression after 24 hrs
Format: cell-based
Settings: HEK293
readout name: Kb (nM)

| structure smiles string | measured target | readout name | measurement units | numeric value |
| --- | --- | --- | --- | --- |
| CN1CCN(C(=O)c2ccc(-n3nc(-c4ccc(C(=O)O)cc4)cc3-c3cc(C(C)(C)C)cc(C(C)(C)C)c3)cc2)CC1 | Retinoic acid receptor gamma (Homo sapiens) (UniProt P13631) | Kb | nM | 7.1 |
| CC(C)(C)c1cc(-c2cc(-c3ccc(C(=O)O)cc3)nn2-c2ccc(C(N)=O)cc2)cc(C(C)(C)C)c1 | Retinoic acid receptor gamma (Homo sapiens) (UniProt P13631) | Kb | nM | 14.7 |
| CC(C)(C)c1cc(-c2cc(-c3ccc(C(=O)O)cc3)nn2-c2ccc(C(=O)N3CCOCC3)cc2)cc(C(C)(C)C)c1 | Retinoic acid receptor gamma (Homo sapiens) (UniProt P13631) | Kb | nM | 7.2 |
| CC1(C)CCC(C)(C)c2cc(-c3cc(-c4ccc(C(=O)O)cc4)nn3-c3ccc(S(C)(=O)=O)cc3)ccc21 | Retinoic acid receptor gamma (Homo sapiens) (UniProt P13631) | Kb | nM | 2.2 |
| CN(C)S(=O)(=O)c1ccc(-n2nc(-c3ccc(C(=O)O)cc3)cc2-c2cc(C(C)(C)C)cc(C(C)(C)C)c2)cc1 | Retinoic acid receptor gamma (Homo sapiens) (UniProt P13631) | Kb | nM | 11.1 |
| CC(C)(C)c1cc(-c2cc(-c3ccc(C(=O)O)cc3)nn2-c2ccc(S(C)(=O)=O)cc2)cc(C(C)(C)C)c1 | Retinoic acid receptor gamma (Homo sapiens) (UniProt P13631) | Kb | nM | 13.5 |
| CN(C)C(=O)c1ccc(-n2nc(-c3ccc(C(=O)O)cc3)cc2-c2cc(C(C)(C)C)cc(C(C)(C)C)c2)cc1 | Retinoic acid receptor gamma (Homo sapiens) (UniProt P13631) | Kb | nM | 21.3 |
| CC1(C)CC=C(c2ccccc2)c2cc(/C=C/c3ccc(C(=O)O)cc3)ccc21 | Retinoic acid receptor gamma (Homo sapiens) (UniProt P13631) | Kb | nM | 18.5 |
